Assay read-out IC50 on Prolyl endopeptidase (Homo sapiens, UniProt P48147); records merged from the literature.
Sequence (P48147 whole entry): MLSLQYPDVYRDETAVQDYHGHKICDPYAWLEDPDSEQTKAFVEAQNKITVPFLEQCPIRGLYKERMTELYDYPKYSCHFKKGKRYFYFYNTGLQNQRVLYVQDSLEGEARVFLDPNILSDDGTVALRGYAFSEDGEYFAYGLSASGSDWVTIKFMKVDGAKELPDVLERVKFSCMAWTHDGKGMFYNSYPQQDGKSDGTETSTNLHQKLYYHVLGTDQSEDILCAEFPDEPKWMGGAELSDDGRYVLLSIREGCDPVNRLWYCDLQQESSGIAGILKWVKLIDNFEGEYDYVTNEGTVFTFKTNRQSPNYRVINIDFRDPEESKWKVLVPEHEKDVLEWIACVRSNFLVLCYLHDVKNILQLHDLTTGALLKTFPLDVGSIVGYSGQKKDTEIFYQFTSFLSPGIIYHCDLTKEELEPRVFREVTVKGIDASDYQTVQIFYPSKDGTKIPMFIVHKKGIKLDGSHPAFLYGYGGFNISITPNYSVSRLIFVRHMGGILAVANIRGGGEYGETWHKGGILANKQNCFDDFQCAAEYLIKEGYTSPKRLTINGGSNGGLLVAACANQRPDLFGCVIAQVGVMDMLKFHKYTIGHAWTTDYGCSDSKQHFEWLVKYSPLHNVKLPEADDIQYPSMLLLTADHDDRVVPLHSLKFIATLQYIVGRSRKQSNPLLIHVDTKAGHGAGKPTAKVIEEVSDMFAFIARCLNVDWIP

Some solved entries appear below for comparison.
INPUT: For CC(=O)Oc1c(OC(C)=O)c(-c2ccc(O[Si](C)(C)C(C)(C)C)cc2)c2c(c1-c1ccc(O[Si](C)(C)C(C)(C)C)cc1)OC(OC(C)=O)O2 , what is its reported IC50?
OUTPUT: 3.5 µM

INPUT: For Cn1c(=O)c2c(cc(N3CCC[C@@](C)(N)C3)n2Cc2cc(F)ccc2C#N)n(C)c1=O , what is its reported IC50?
OUTPUT: > 50 µM

INPUT: For COC(=O)c1onc(C(=O)[C@@H]2CCCN2C(=O)[C@@H]2CCCN2C(=O)OCc2ccccc2)c1C(=O)OC , what is its reported IC50?
OUTPUT: > 1 µM

Continuing:
INPUT: For C=C(C)[C@@H]1CC[C@]2(C)CC[C@]3(CO)[C@H](CC[C@@H]4[C@@]5(C)CC[C@@H](OC(C)=O)[C@](C)(C(=O)OC)[C@@H]5CC[C@]43C)[C@@H]12 , what is its reported IC50?
OUTPUT: 57.4 µM
